Some compounds, each annotated with its measured pIC50.
System: P. falciparum female gametocytes
testDetails: P. falciparum Dual Gamete Formation Assay (PfDGFA), female readout (Pfs25-positive female gametes)
Format: cell-based, Plasmodium falciparum NF54
measurementParameters: PfDGFA, 24 h incubation with gametocytes before induction, female gamete readout; read-out: Female IC50
pIC50: −log10 of the molar value.
measuredAttribute: pIC50

• COc1cc2ccccc2cc1CCNCCCCNCCc1cc2ccccc2cc1OC.CS(=O)(=O)O = 5.46
• CC(C)Oc1ccc2ccccc2c1CNCCCCCCNCc1c(OC(C)C)ccc2ccccc12.CS(=O)(=O)O = 5.59
• CC(=NNC(=S)NC(C)(C)C)c1ccccn1 = 6.01
• CCN(CC)CC(O)CNc1c2ccc([N+](=O)[O-])cc2nc2cc(OC)c(OC)cc12.Cl (stereo not drawn) = 5.51
• O=C(O)C(=O)O.Oc1c(CN2CCC(Cc3ccccc3)CC2)cc(Cl)c2cccnc12 = 5.94
• CCOc1cc(OCC)c2ccccc2c1CNCCCCCCNCc1c(OCC)cc(OCC)c2ccccc12.CS(=O)(=O)O = 5.77
• COc1ccc(CNC2CCN(C)CC2)cc1-c1ccc(S(=O)(=O)NCc2ccccc2)c(F)c1.O=C(O)C(F)(F)F = 5.37
• C=CCOc1ccc2ccccc2c1CNCCCCCCNCc1c(OCC=C)ccc2ccccc12.CS(=O)(=O)O = 5.55
• CN(C)CCCOc1ccc(CN2CCC(c3c[nH]c4ccc(NCC5CCCCC5)cc34)CC2)cc1.O=C(O)C(F)(F)F = 5.31
• COc1cc(CNCCCCCCNCc2cc(OC)c3ccccc3c2OC)c(OC)c2ccccc12.CS(=O)(=O)O = 5.52
• Cl.Clc1ccc(OCCC2CCN(CCCCCCCN3CCC(CCOc4ccc(Cl)c(Cl)c4)CC3)CC2)cc1Cl = 5.76
• CN(CCCNCc1cccc2ccccc12)CCCNCc1cccc2ccccc12.Cl = 5.84
• CCOc1cc(CNCCCCCCNCc2cc(OCC)c(OCC)c3ccccc23)c2ccccc2c1OCC.CS(=O)(=O)O = 5.67
• CN1CCC(N2CCN(Cc3cccc(-c4ccc(-c5nc6cc(C(F)(F)F)ccc6[nH]5)cc4)c3)CC2)CC1.O=C(O)C(F)(F)F = 5.49
• COc1cc2ccccc2c(OC)c1CNCCCCCCNCc1c(OC)cc2ccccc2c1OC.CS(=O)(=O)O = 5.39
